Attribution: PubChem BioAssay (NCI)

Reported log10(TGI) values for the following compounds.
tested on: SK-MEL-5 melanoma; test: NCI tumour cell line growth inhibition, 48 h
Hi team, quick reminder: these entries are log10 of TGI (µM).

As a guide, the following entries are already answered.
Smiles repr | Meas value
O=C(/C=C/c1ccc(Cl)c(Cl)c1)c1cccc2ccccc12 | 1.54
CC(C)C[C@H](NC(=O)CCn1ccc2ccccc2c1=O)B(O)O | 1.28

Entry "O=C1C(OCCOc2ccccc2)=C(OCCOc2ccccc2)C(=O)c2ccccc21" under SK-MEL-5 melanoma had log10(TGI) of 0.69

Entry "COC(=O)c1cc(-c2ccc(OC)c(OC)c2)[nH]c1N/N=C/c1c(Cl)cccc1Cl" under SK-MEL-5 melanoma had log10(TGI) of 0.66

Entry "Oc1c(-c2cc(C(F)(F)F)[nH]n2)cc(Cl)c(OCc2ccc(Cl)cc2)c1-c1ccc(Cl)c(C(F)(F)F)c1" under SK-MEL-5 melanoma had log10(TGI) of -0.03

====

system: SF-539 CNS; assay: NCI tumour cell line growth inhibition, 48 h
Reported TGI values for the following compounds.
Note: unit µM is implicit; provide only the numeric part.

Compound | TGI / µM
O=C1c2ccccc2N2OC3(N4CCCC4)CCCCC3C12c1ccccc1 (stereo not given) | 80.5
CCc1ccc2c(c1)N(CC(C)CN(C)C)c1ccccc1S2 (stereo not given) | 24.1
N#CCCC1(CCC#N)CCCCCCCCC(CCC#N)(CCC#N)C(O)C1O (stereo not given) | 85.8
O=C1CCCC/C1=C\c1ccc(Cl)c(Cl)c1 | 32.5
CC(C)/C(Cl)=N/OC(=O)Nc1ccc(Cl)c(Cl)c1 | 28.9

Entry "C[CH2][Hg][S]c1ccccc1C(=O)O" under SF-539 CNS had TGI of 3.32

Entry "CCC(=O)Nc1ccc(N2C(=O)/C(=C/c3ccc(OC)cc3)N=C2c2ccccc2)cc1" under SF-539 CNS had TGI of 16

Entry "O=c1c2cc(F)ccc2sc2c(NCCCNCCO)nc3ccccc3c12" under SF-539 CNS had TGI of 3.19

====

Reported TGI values for the following compounds.
test system: DU-145 prostate; experiment: NCI tumour cell line growth inhibition, 48 h

Compound | TGI
O=C(CN1N=C(c2ccc(F)cc2)CCC1=O)Nc1nc2ccccc2s1 | > 100 µM
COC(=O)Cc1c(-c2c(CC(=O)OC)c3ccccc3n2C2OC(COC(C)=O)C(OC(C)=O)C(OC(C)=O)C2OC(C)=O)[nH]c2ccccc12 (stereo not given) | > 100 µM
CCN(CC)C1Oc2cc3c(cc2C(c2cccc(OC)c2OC)C1C)OCO3 (stereo not given) | 23.9 µM
CC(C)/C(Cl)=N/OC(=O)Nc1ccc(Cl)c(Cl)c1 | 32.5 µM
COc1cc(C(=O)c2cc(C)c3[nH]c4ccc(O)cc4c3c2C)cc(OC)c1OC | > 26.5 µM
COc1cc(CNc2nc3ccccc3nc2C(=O)O)cc(OC)c1OC | > 100 µM
Cc1ccncc1C(N)=O | > 100 µM
CCN(CCN(CC)C(=O)Nc1ccccc1)C(=O)Nc1ccccc1 | > 100 µM
CC1(C)CC(=O)c2c(nc3c4c([nH]c(-c5ccc(Br)cc5)c24)CC(C)(C)C3)C1 | > 100 µM

Entry COc1ccc(C2=NOC(N)(c3ccc(OC)cc3)C2)cc1 (stereo not given) under DU-145 prostate had TGI of > 100 µM
